# PROTOCOL_DESCRIPTION: Ecotoxicity: fish, acute
# ASSAY_SETUP: in vivo, Rainbow trout
# Description: The ecotoxicity of flumetylsulforim was investigated in numerous studies in accordance with the strict requirements for the approval of active substances in the EU.
READOUT_LABEL: LC50 (µg/mL)

• Cc1ccc(S(=O)(=O)n2cc(F)c(=N)n(C)c2=O)cc1 = 5.41

* * *

# PROTOCOL_DESCRIPTION: Ecotoxicity: algae, long-term
# Assay type: in vivo
# ASSAY_SETUP: in vivo, Green alga
READOUT_LABEL: EC50

* Cc1ccc(S(=O)(=O)n2cc(F)c(=N)n(C)c2=O)cc1 | > 10 µg/mL
